// data source = paper PMC7037682

experiment: in vivo; conditions: rat, iv, 1 mg/kg, C0
readout: C0 (ng/mL)

• CCCCC(=O)N(Cc1ccc(-c2ccccc2-c2nnn[nH]2)cc1)[C@H](C(=O)O)C(C)C = 648

* * *

experiment: in vivo; details: rat, iv, 1 mg/kg, Vd
readout: Vd (L/kg)

• CCCCC(=O)N(Cc1ccc(-c2ccccc2-c2nnn[nH]2)cc1)[C@H](C(=O)O)C(C)C = 4.33

* * *

assay: Plasma pharmacokinetics of ginsenosides in rats after 1-week repeated RGE; settings: rat plasma, after RGE 1.5 g/kg/day po for 7 days
readout: maximum plasma concentration (molar) (nM)

- CC(C)=CCC[C@](C)(O[C@@H]1O[C@H](CO[C@@H]2OC[C@H](O)[C@H](O)[C@H]2O)[C@@H](O)[C@H](O)[C@H]1O)[C@H]1CC[C@]2(C)[C@@H]1[C@H](O)C[C@@H]1[C@@]3(C)CC[C@H](O[C@@H]4O[C@H](CO)[C@@H](O)[C@H](O)[C@H]4O[C@@H]4O[C@H](CO)[C@@H](O)[C@H](O)[C@H]4O)C(C)(C)[C@@H]3CC[C@]12C [Rb2, ginsenoside Rb2]: 9.1
- CC(C)=CCCC(C)(O)[C@H]1CC[C@]2(C)[C@@H]1[C@H](O)C[C@@H]1[C@@]3(C)CC[C@H](O)C(C)(C)[C@@H]3CC[C@]12C (stereo in doubt): 48.4
- CC(C)=CCC[C@](C)(O[C@@H]1O[C@H](CO[C@@H]2O[C@@H](CO)[C@H](O)[C@H]2O)[C@@H](O)[C@H](O)[C@H]1O)[C@H]1CC[C@]2(C)[C@@H]1[C@H](O)C[C@@H]1[C@@]3(C)CC[C@H](O[C@@H]4O[C@H](CO)[C@@H](O)[C@H](O)[C@H]4O[C@@H]4O[C@H](CO)[C@@H](O)[C@H](O)[C@H]4O)C(C)(C)[C@@H]3CC[C@]12C [Rc, ginsenoside Rc]: 10.6
- CC(C)=CCC[C@](C)(O[C@@H]1O[C@H](CO)[C@@H](O)[C@H](O)[C@H]1O)[C@H]1CC[C@]2(C)[C@@H]1[C@H](O)C[C@@H]1[C@@]3(C)CC[C@H](O[C@@H]4O[C@H](CO)[C@@H](O)[C@H](O)[C@H]4O[C@@H]4O[C@H](CO)[C@@H](O)[C@H](O)[C@H]4O)C(C)(C)[C@@H]3CC[C@]12C [Rd, ginsenoside Rd]: 5.3
- CC(C)=CCC[C@](C)(O)[C@H]1CC[C@]2(C)[C@@H]1[C@H](O)C[C@@H]1[C@@]3(C)CC[C@H](O)C(C)(C)[C@@H]3[C@@H](O)C[C@]12C: 38.5
